QUANTITY_KIND: melting point

melting point measured on Cc1noc(-c2c3cccc(-c4ccc(Cl)cc4Cl)c3nn2C)n1 = 178 °C

melting point measured on O=C(CCl)Nc1ccc2c(c1NC(=O)c1ccc(Cl)cc1)C(=O)c1ccccc1C2=O = 224 to 225 °C

melting point measured on O=C(O)Cc1c(-c2ccccc2)c(=O)[nH]c2cc(Cl)ccc12 = 175 °C

melting point measured on CN1CCC(Sc2[nH]nc(-c3ccc(Cl)cc3)c2-c2ccncc2)CC1 = 228 °C

melting point measured on CC(C)Oc1nc(-c2ccc(Cl)cc2)c(CCC(=O)O)o1 = 116 to 117 °C

melting point measured on O=S(=O)(Nc1nc2ccccc2nc1Nc1cccc2ccccc12)c1ccc(Cl)cc1 = 262 to 265 °C

melting point measured on CCCCOc1ccc(S(C)(=O)=O)cc1-c1nc2c(CC)nn(Cc3ccccn3)c2c(=O)[nH]1 = 189 to 191 °C

melting point measured on CCCO[C@@H](Cc1ccc(OCCc2nc(-c3ccc(-c4ccccc4)cc3)oc2C)c2ccsc12)C(=O)O = 147 to 151 °C

melting point measured on CC[C@H]1CNCC[C@H]1CCc1c[nH]c2ccccc12 = 150 °C

melting point measured on CN=c1[nH]c2ccccc2c2nc(-c3ccc[nH]3)nn12 = 220 to 221 °C

melting point measured on O=C1c2ccccc2N(N2CCCCCC2)C2=NCCN12 = 206 to 208 °C

melting point measured on CCc1nc2ncnc(-c3c(C)cc(C)cc3C)c2[nH]1 = 215 to 217 °C

melting point measured on O=C1c2ccccc2C(=O)N1C(Cc1ccccc1)C1CC(Cc2ccccc2)=NO1 (centres undefined) = 134 to 136 °C

melting point measured on Cc1cccc(NN)n1 = 54 to 56 °C

melting point measured on CC(C)NC(c1nccn1C)C1(c2ccc(Cl)c(Cl)c2)CCC1 (centres undefined) = 98 to 100 °C

melting point measured on Nc1cccc2c1COC2 = 85 to 89 °C

melting point measured on Cc1c(NC(=O)OCc2ccccc2)cccc1C(C[N+](=O)[O-])c1c[nH]c2ccc(N3CCOCC3)cc12 (centres undefined) = 140 °C

melting point measured on O=CNC(c1cccc(Cl)c1)c1ccnc2ccccc12 (centres undefined) = 136 °C

melting point measured on O=C(O)COc1ccc2c(c1)Cc1sc(S(=O)(=O)CCC(c3ccccc3)c3ccccc3)nc1-2 = 172 to 174 °C

* * *

For each record, write down the corresponding melting point.

melting point measured on Cc1cc(N2CCC3(CC2)OCCO3)nn2cnnc12 = 156 to 157 °C

melting point measured on O=C(Nc1ccc(C(=O)N2CCC(O)c3ccccc32)cc1)c1cc(Cl)cc(Cl)c1 (centres undefined) = 215 to 217 °C

melting point measured on COc1ccc(/C=C/C(=O)N2CC(CCl)c3c2cc(NC(=O)OC(C)(C)C)c2ccccc32)cc1 (centres undefined) = 185 to 186 °C

melting point measured on CCCc1c(C(=O)NCc2ccc3cc(OCC(=O)O)ccc3c2)cnn1-c1ccccc1 = 175 to 177 °C

* * *

For each record, write down the corresponding melting point.

melting point measured on CCOP(=O)(OCC)C(CCc1cc(C)nc2c(I)c(-c3ccccc3)nn12)P(=O)(OCC)OCC = 81 to 82 °C

melting point measured on COCC1OC(n2cnc3c(NCc4cccc(I)c4)nc(Cl)nc32)C(O)C1O (stereo not drawn) = 84 to 86 °C

melting point measured on Cc1nnc(Cl)c2cc3n(c12)CCCC3 = 272 to 274 °C

melting point measured on Brc1ccc(N(Cc2ccccc2)Cc2ccccc2)cc1 = 123 °C

melting point measured on COc1cc(CCC(=O)Nc2nc3ccccc3s2)ccc1C(=O)/C=C/C(=O)O = 260 to 261 °C

melting point measured on c1ccc2c(CC3CCCCC3)c[nH]c2c1 = 71 to 73 °C

melting point measured on CCC(C)NC(=O)c1ncc(C)cc1C(N)=O (stereo not drawn) = 119 to 123 °C

melting point measured on COc1cc2c(=O)n(C(C)CN(C)C)c3c4cc5c(cc4ncc3c2cc1OC)OCO5 (stereo not drawn) = 186 to 187 °C
